Values were extracted from PubChem BioAssay.

We begin with a simple list: items and their reported inhibition.
- test description: inhibitors of Chlamydomonas gravitaxis, primary screen, whole organism, Chlamydomonas reinhardtii, WT vs cilia-less mutant, absorbance, 96-well (AID 463189);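 further: 0% = wild type cc124 cells in DMSO and 100% = ciliumless bld1 mutant cells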
- setup conditions: OD600 absorbance, 2 days, at 10 µM, hits give high values
Please give a number only; it is taken to be in %.

CCCc1nnc(NC(=O)c2c(O)c3c([nH]c2=O)CCCC3)s1 = 14

Inquiry: Consider the compound `COc1ccc(CNC(=O)[C@H](C)NC(=O)C2CCN(S(=O)(=O)c3ccc(C)cc3)CC2)cc1` and give its recorded inhibition.
Reply text: -1.92

Inquiry: Consider the compound O=C(CCCN1C(=O)c2ccccc2C1=O)N1CCC(c2ccccc2)C1 (configuration not stated) and give its recorded inhibition.
Reply text: 10.2

Inquiry: Consider the compound `CN(C)c1nc2sc3c(c2c(=O)n1C)CC(C)(C)OC3` and give its recorded inhibition.
Reply text: 157

Inquiry: Consider the compound `CC1(C)Cc2c(oc3ncn4ncnc4c23)CO1` and give its recorded inhibition.
Reply text: 18.4

Inquiry: Consider the compound `COc1ccc(N2CCN(c3nc4c(c(=O)[nH]c(=O)n4C)n3CCCc3ccccc3)CC2)cc1` and give its recorded inhibition.
Reply text: 1.13

Inquiry: Consider the compound `CCOC(=O)CC(=O)CSc1nc(N)c(C#N)c(-c2ccc(F)cc2)c1C#N` and give its recorded inhibition.
Reply text: -14.2

Inquiry: Consider the compound N#CC12CCCCC1CC1CCCCC1(C#N)N2Cc1ccccn1 (configuration not stated) and give its recorded inhibition.
Reply text: -3.05

* * *

- test description: inhibitors of Chlamydomonas gravitaxis, primary screen, whole organism, Chlamydomonas reinhardtii, WT vs cilia-less mutant, absorbance, 96-well (AID 463189);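 further: 0% = wild type cc124 cells in DMSO and 100% = ciliumless bld1 mutant cells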
- setup conditions: OD600 absorbance, 2 days, at 10 µM
Activity calls are given as the source filed them.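 Rule for the calls: active = inhibition at or above 50% relative to wild type and mutant plate controls; inactive = inhibition below 50%.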
Please answer using one outcome listed in yes = active, no = inactive

Observe how each entry below is paired with its result.
Cn1c(NCc2ccco2)nc2c1c(=O)n(Cc1ccc(Cl)c(Cl)c1)c(=O)n2C = no
COc1cccc(OC)c1-c1nn2c(-c3ccccc3Cl)nnc2s1 = yes
Cn1c(OCc2ccco2)nc2c1c(=O)n(Cc1ccc(Cl)c(Cl)c1)c(=O)n2C = no

Inquiry: Hi, do you know how CC(C)Oc1ccc(/C(O)=C2/C(=O)C(=O)N(CCN3CCOCC3)C2c2ccccc2)cc1 (stereo not drawn) came out in this test?
Reply text: no

Inquiry: Hi, do you know how CCCCCCCCNC(C)C(O)c1ccc(SC(C)C)cc1 (stereo not drawn) came out in this test?
Reply text: yes

Inquiry: Hi, do you know how `CC(=N\O)/C(CN(C)C)=N/O` came out in this test?
Reply text: no

Inquiry: Hi, do you know how O=S(=O)(c1ccc2ccccc2c1)N(CC(O)CN1CCOCC1)c1ccccc1 (stereo not drawn) came out in this test?
Reply text: yes

Inquiry: Hi, do you know how `CCCCn1c(C)cc2cc(O)ccc21` came out in this test?
Reply text: no

Inquiry: Hi, do you know how O=C(Nc1ccc(Cl)cn1)C1CCCN1S(=O)(=O)c1ccccc1 (stereo not drawn) came out in this test?
Reply text: no

Inquiry: Hi, do you know how `N#CC(C(=O)Nc1ccc(Cl)c(Cl)c1)=C1Nc2ccccc2N1` came out in this test?
Reply text: no

* * *

- system under test: Voltage-gated potassium channel subunit beta-2 (Rattus norvegicus) (UniProt P62483)
- Sequence (P62483 whole entry, looked up): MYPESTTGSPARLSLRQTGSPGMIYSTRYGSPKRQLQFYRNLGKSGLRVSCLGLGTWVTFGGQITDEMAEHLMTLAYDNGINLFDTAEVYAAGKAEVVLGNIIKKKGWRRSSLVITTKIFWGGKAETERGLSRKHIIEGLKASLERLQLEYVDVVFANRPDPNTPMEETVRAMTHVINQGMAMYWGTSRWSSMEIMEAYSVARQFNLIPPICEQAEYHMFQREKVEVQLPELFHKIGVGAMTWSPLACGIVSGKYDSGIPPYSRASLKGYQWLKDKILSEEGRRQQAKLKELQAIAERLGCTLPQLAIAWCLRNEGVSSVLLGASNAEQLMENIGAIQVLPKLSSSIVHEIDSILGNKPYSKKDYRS
- test description: KvBeta enzyme negative modulators, primary screen, biochemical, NADPH fluorescence (AID 622);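 further: slope of raw intensity against log time taken from 70 to 1610 s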
- setup conditions: recombinant KvBeta, 4-cyanobenzaldehyde reduction, at 10 µM, hits give high values
Please enter met where fluorescence slope is greater than or equal to -0.4, and not met where it is lower.

Observe how each entry below is paired with its result.
COC(=O)c1ccc(CSc2ncnc3c2sc2nc(N4CCOCC4)c4c(c23)CCCC4)o1 = met
OCCN(CCO)c1ncnc2c1sc1nc(N3CCOCC3)c3c(c12)CCCC3 = met
CCOC(=O)CSc1nc(NC#N)nc(N(CC)CC)n1 = not met
C=C1[C@@H](C)C2[C@H](Cc3ccccc3)NC(=O)[C@]23OC(=O)CC[C@H](O)CCC[C@H](C)C/C=C/[C@H]3[C@@H]1O (some centres not stated) = not met
CCOC(=O)c1[nH]c2ccc(Br)cc2c1NC(=O)CNC = not met
Cc1cc(NC(=O)C2=C(O)c3ccccc3S(=O)(=O)N2C)no1 = not met
NNC(=O)c1ccncc1 = not met
COc1cccc(OC)c1-c1nn2c(-c3ccco3)nnc2s1 = not met

Now examine the next entry.
Inquiry: Entry Cc1cccc(N2C(=O)CC(N3CCN(Cc4ccc(Cl)cc4)CC3)C2=O)c1 (configuration not stated) : is its fluorescence slope no less than -0.4?
Reply text: not met
